Target: T1, human NKp30-his protein (KACTUS; Cat: NKP-HM430) (human, UniProt O14931 19-135, limits assumed)
T1 construct: Bought protein (KACTUS NKP-HM430); not shown: His tag
T1 sequence (looked up): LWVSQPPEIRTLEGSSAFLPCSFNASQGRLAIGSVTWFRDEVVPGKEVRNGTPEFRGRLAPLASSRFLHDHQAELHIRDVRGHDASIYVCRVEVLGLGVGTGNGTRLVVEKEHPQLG
Assay: BLI (Octet Red96e), antibody captured on AHC sensor, 100 nM human NKp30-his in solution, 1:1 fit
recorded.endpoint: Kd (nM)
Express your answer in nM, writing the number without its unit.

{"columns": ["binder", "recorded.endpoint", "reported.result"],
 "data": [
  ["antibody 22 (antibody, V domains shown, expressed in CHO cells) VH: QVQLVESGGGLVQPGGSLRLSCAASGSIFSANVMGWYRQAPGKLRELVAGMHSGGSANYADSVKGRFTISKDNAKNTMYLQMNSLKPEDTAVYYCNFGLGFDGHDYWGQGTQVTVSA", "Kd", 2.31]
]}

Look at this binder and give its reported Kd. antibody 17 (antibody, V domains shown, expressed in CHO cells) VH: QLQLVESGGGLVQPGGSLRLSCAASGSIDSINAMGWYRQAPGKLRELVAGITRGGDVNYADSVKGRFTISRVDARNTVTVYLQMNSLKPEDTAVYYCNNLGFPSDWAQGTQVTVSS
1.26

Look at this binder and give its reported Kd. antibody 19 (antibody, V domains shown, expressed in CHO cells) VH: EVQVVESGGDLVQPGGSLRLSCAAFGSSFSIDMMGWYRQVPGKQRELVAGITKGGFADYADSVKGRFTISMDAAKNTVYLQMNSLKPEDTAVYYCNTLPTHSDWGQGTQVTVSS
1.81

Look at this binder and give its reported Kd. antibody 2 (antibody, V domains shown, expressed in CHO cells) VH: QVQLVESGGGLVQPGGSLRLSCAASGSIFSVNEMGWYRQAPGKLRELVAAITSDGTTAYADSVKGRFTISRDNAKNTVYLQMNSLKPEDTAVYDCNTWPEARGDWGQGTQVTVSS
0.597
